The following compounds are shown together with reported IC50 values.
# Procedure Text: MTT assay, summary over the cell panel
# Type: cell-based
# Procedure: HeLa, MCF7, MDA-MB-231 and K562 cancer cell lines were provided by ATCC (American Type Culture Collection). Cells were incubated at 37 °C with 5% CO2. HeLa, MCF7 and MDA-MB-231 cells were maintained in DMEM, while K562 cells were maintained in RPMI medium, both supplemented with 10% (v/v) fetal bovine serum (FBS) and antibiotics/antimycotics. […]
Experimental Readout: IC50

CCc1cc2c(cc1-c1ccn(C(=O)CCCC(=O)NCCCC[C@@H]3NC(=O)[C@@H](Cc4ccc(O)cc4)NC(=O)[C@H](CC(=O)O)NC(=O)CNC(=O)[C@H](CCCNC(=N)N)NC3=O)n1)C(C)(C)c1[nH]c3cc(C#N)ccc3c1C2=O    3 to 18 µM
CCc1cc2c(cc1-c1ccn(C(=O)OCCOCCOCCOC(=O)NCCCC[C@@H]3NC(=O)[C@@H](Cc4ccc(O)cc4)NC(=O)[C@H](CC(=O)O)NC(=O)CNC(=O)[C@H](CCCNC(=N)N)NC3=O)n1)C(C)(C)c1[nH]c3cc(C#N)ccc3c1C2=O    3 to 18 µM
